Data provenance is PubChem BioAssay (NCI).

# Tested on: NCI-H522 lung
# Experiment Description: NCI tumour cell line growth inhibition, 48 h; in the data active = GI50 below about 0.43 µM; inactive = the rest
Outcomes you can answer with include only these: 1 (active), 0 (inactive)

| Compound | Category |
| --- | --- |
| COc1ccc(C[C@@H]2NC[C@@H](O)[C@@H]2OC(C)=O)cc1 | 0 |
| COC(=O)Nc1nc2ccc(C(=O)c3ccc(N(C)C4COC4)cc3)cc2[nH]1 | 1 |
| COc1cc2c3c(n(CCCNCCCNCCCNCCCN)c(=O)c2cc1OC)-c1cc2c(cc1C3=O)OCO2 | 0 |
| Fc1ccc(-c2ncn(C3CCNCC3)c2-c2ccnc(Oc3ccc(F)c(F)c3)n2)cc1 | 0 |

Qu. // return assay outcome for Nc1ccccc1NC(=O)c1ccc(CCCC(=O)Nc2ccc(C3CC3N)cc2)cc1 (stereo not drawn)
Ans. 0

Qu. Field entry: `Cc1cc(Nc2c3ccccc3nc3ccccc23)ccc1NS(C)(=O)=O`
Ans. 0

Qu. Field entry: `O=Cc1ccc(-c2ccc(-c3nc4ccccc4o3)cc2)s1`
Ans. 0

Qu. Field entry: `CS(=O)(=O)Nc1cccc(-c2cc(-c3ccccc3Cl)c(C#N)c(N)n2)c1`
Ans. 1

Qu. Field entry: Cc1cc(O)c(C2=NN(c3ccc(S(N)(=O)=O)cc3)C(c3ccc(N(C)C)cc3)C2)c(C)c1Cl (stereo not drawn)
Ans. 0

* * *

# maps each entry to its TGI
# Test system: DU-145 prostate
# Experiment Description: NCI tumour cell line growth inhibition, 48 h

Check out these entries, answers already filled in.
| Molecule | TGI |
| --- | --- |
| CCN(CC)CCCC(C)Nc1nc(C)cc(Nc2ccc3nc(C)cc(N)c3c2)n1 (centres undefined) | > 100 µM |
| NC(=O)NC(=O)c1cccc(CNc2ccc(C(=O)N[C@@H](CCC(=O)O)C(=O)O)cc2)n1 | > 100 µM |
| CC(=O)O[C@@H]1[C@@H](O)C2=C3[C@]4(C)[C@@H]1C(C)(C)C(=O)C[C@@H]4[C@]3(O)[C@H](OC(C)=O)[C@@]1(C[C@@H]1C)C2=O | 33.8 µM |

Shift focus to the following entry.
Qu. Request body: readout TGI, system DU-145 prostate, query `CCOC(=O)c1sc(N/N=C2\NC(=O)/C(=C/c3ccc([N+](=O)[O-])cc3)S2)nc1C` . Return the value.
Ans. 47.4 µM

* * *

# Tested on: PC-3 prostate
# Experiment Description: NCI tumour cell line growth inhibition, 48 h
# maps each entry to its TGI

Check out these entries, answers already filled in.
| Smiles Record | TGI |
| --- | --- |
| Brc1c(C#CCC(c2ccccc2)(c2ccccc2)c2ccccc2)ccc(C#CCC(c2ccccc2)(c2ccccc2)c2ccccc2)c1Br | > 100 µM |
| COC1=CC(=O)C(OC)=C(OC)C1=O | 32.8 µM |
| O=C(Nc1cc2c(=O)oc3ccccc3c2oc1=O)c1cccnc1 | > 100 µM |
| CC(C)(C)c1cc2c(O)c(c1)Cc1cc(C(C#N)(Cc3ccc4ccccc4c3)Cc3ccc4ccccc4c3)cc(c1O)Cc1cc(C(C)(C)C)cc(c1O)Cc1cc(C(C#N)(Cc3ccc4ccccc4c3)Cc3ccc4ccccc4c3)cc(c1O)C2 | > 100 µM |
| COc1cc(Nc2ncc(F)c(Nc3ccc4c(n3)NC(=O)C(C)(C)O4)n2)cc(OC)c1OC | > 10 µM |
| O=C(O)c1cc2ccccc2c(N=Nc2cc(C(F)(F)F)ccc2Cl)c1O | > 100 µM |
| Cc1cc(S(=O)(=O)/N=C(\[N-]S(=O)(=O)c2ccc(Cl)cc2)[n+]2ccc(N(C)C)cc2)c(S)cc1Cl | > 100 µM |

Shift focus to the following entry.
Qu. TGI for `N#CC(C#N)N=Nc1ccc(Br)cc1` ?
Ans. 17.7 µM
